pIC50: −log10 of the molar value.
A set of compounds tested on Cyclin-dependent kinase 2 (Homo sapiens), with measured pIC50:

Prompt line: Lab request: please report pIC50 under test system Cyclin-dependent kinase 2 (Homo sapiens) for C[N+](C)(C)[C@H](CCOc1c(Br)cc(Br)cc1I)C(=O)[O-] [PURPUROINE D]
Response line: < 4.02

Prompt line: Now the compound COc1c(Br)cc(C[C@H](C(=O)[O-])[N+](C)(C)C)cc1I [PURPUROINE H]
Response line: < 3.95

Prompt line: Now the compound C[N+](C)(C)[C@H](Cc1cc(I)c(O)c(I)c1)C(=O)[O-] [PURPUROINE G]
Response line: < 3.98

----------
# System: Fusarium oxysporum
# TEST DESCRIPTION: Antimicrobial activity against Fusarium oxysporum by microplate reader analysis
# Assay type: functional, organism-based
Activity calls are given as the source filed them. The rule behind the calls is not given here.
OBSERVATION TYPE: Activity

Below, each entry is followed by its recorded Activity result.
COc1c(I)cc(C[C@H](C(=O)[O-])[N+](C)(C)C)cc1I [PURPUROINE F] = Active
COC(=O)[C@@H](Cc1c[nH]c2cc(Br)ccc12)[N+](C)(C)C (racemic) = Active
C[N+](C)(C)[C@H](CCOc1c(Cl)cc(Br)cc1Br)C(=O)[O-] = Active
C[N+](C)(C)[C@H](CCOc1ccc(Br)cc1Br)C(=O)[O-] [PURPUROINE B] = Active

Here is the next item to consider.
Prompt line: Item under review: C[N+](C)(C)[C@H](Cc1cc(I)c(O)c(I)c1)C(=O)[O-] [PURPUROINE G] . Reported Activity?
Response line: Active

----------
# System: Aspergillus fumigatus
# TEST DESCRIPTION: Antimicrobial activity against Aspergillus fumigatus by microplate reader analysis
# Format: functional, organism-based
# CONDITION DETAILS: Aspergillus fumigatus; read-out: IC50
Please provide measured IC50 for the entries that follow.
Just the number in µg/mL, nothing appended.

Prompt line: Item under review: C[C@@H]1[C@H](O)[C@@H](C)/C=C/C=C/C=C/C=C/C=C/C=C/C=C/[C@H](O[C@@H]2O[C@H](C)[C@@H](O)[C@H](N)[C@@H]2O)C[C@@H]2O[C@](O)(C[C@@H](O)C[C@@H](O)[C@H](O)CC[C@@H](O)C[C@@H](O)CC(=O)O[C@H]1C)C[C@H](O)[C@H]2C(=O)O . Reported IC50?
Response line: 3.27

Prompt line: Now the compound C[N+](C)(C)[C@H](CCOc1c(Br)cc(Br)cc1I)C(=O)[O-]
Response line: 25.6

Prompt line: Now the compound C[N+](C)(C)[C@H](CCOc1c(Br)cc(Br)cc1Br)C(=O)[O-]
Response line: 28.6

Prompt line: Now the compound C[N+](C)(C)[C@H](CCOc1c(Cl)cc(Br)cc1Cl)C(=O)[O-]
Response line: 26.1

----------
# TARGET OF ASSAY: Serine/threonine-protein kinase PLK1 (Homo sapiens)
# Sequence (P53350 whole entry): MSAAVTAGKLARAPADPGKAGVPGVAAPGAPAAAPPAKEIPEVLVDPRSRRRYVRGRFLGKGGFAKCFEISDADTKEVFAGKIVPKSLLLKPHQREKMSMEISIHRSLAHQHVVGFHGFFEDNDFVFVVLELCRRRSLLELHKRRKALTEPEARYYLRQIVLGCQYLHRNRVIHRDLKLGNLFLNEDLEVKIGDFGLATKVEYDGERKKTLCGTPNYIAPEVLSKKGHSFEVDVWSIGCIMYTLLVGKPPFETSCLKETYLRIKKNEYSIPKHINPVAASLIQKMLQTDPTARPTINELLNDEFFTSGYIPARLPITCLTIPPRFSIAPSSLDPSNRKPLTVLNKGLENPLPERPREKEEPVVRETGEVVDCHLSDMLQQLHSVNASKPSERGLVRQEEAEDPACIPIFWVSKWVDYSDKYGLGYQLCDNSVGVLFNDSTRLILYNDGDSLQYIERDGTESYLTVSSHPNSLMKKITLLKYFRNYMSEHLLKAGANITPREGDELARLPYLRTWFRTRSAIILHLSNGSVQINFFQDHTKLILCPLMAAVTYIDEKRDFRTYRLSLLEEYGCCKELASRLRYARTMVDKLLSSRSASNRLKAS
OBSERVATION TYPE: IC50 (µM)
Just the number in µM, nothing appended.

Prompt line: Item under review: C[N+](C)(C)[C@H](CCOc1c(Cl)cc(Br)cc1Cl)C(=O)[O-] . Reported IC50?
Response line: 17.8

----------
A set of compounds tested on Tyrosine-protein kinase Lck (Homo sapiens, UniProt P06239), with measured pIC50:
Interpret pIC50 as the negative base-10 log of the concentration measured in mol/L.

Prompt line: Item under review: C[N+](C)(C)[C@H](CCOc1c(Br)cc(Br)cc1I)C(=O)[O-] . Reported pIC50?
Response line: 5.74

Prompt line: Now the compound C[N+](C)(C)[C@H](CCOc1ccc(Br)cc1Br)C(=O)[O-]
Response line: 4.49

Prompt line: Now the compound C[N+](C)(C)[C@H](CCOc1c(Br)cc(Br)cc1Br)C(=O)[O-]
Response line: 5.30

Data origin: ChEMBL document CHEMBL2203016
